Reported values of pIC50 for individual entries
# STUDY TARGET: T1, human CX3CR1 (human, UniProt P49238 1-355)
# T1 construct: overexpressed on CHO, BA/F3 or HEK293T cells; also called huCX3CR1; hCX3CR1
# T1 sequence: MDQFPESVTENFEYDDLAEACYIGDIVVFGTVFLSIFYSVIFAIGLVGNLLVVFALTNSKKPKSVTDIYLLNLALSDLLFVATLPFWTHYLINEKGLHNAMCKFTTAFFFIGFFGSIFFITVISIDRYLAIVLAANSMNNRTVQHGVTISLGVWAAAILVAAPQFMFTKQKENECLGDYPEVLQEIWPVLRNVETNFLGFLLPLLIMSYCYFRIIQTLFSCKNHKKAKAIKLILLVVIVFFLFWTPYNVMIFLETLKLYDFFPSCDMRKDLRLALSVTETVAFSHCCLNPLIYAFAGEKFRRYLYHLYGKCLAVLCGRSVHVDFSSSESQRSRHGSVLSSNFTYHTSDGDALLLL
# EXPERIMENT: fractalkine competition FACS
# pIC50 is unitless: minus log10 of the molar concentration; print number only

See these solved cases before continuing.
>>> obs_value("C100CX3CR1BII056 (VHH, 66B02 with S11L, A14P, E16G, R44Q, A74S, K83R, Q108L; not shown: myc/His tag) VHH: EVQLVESGGGLVQPGGSLRLSCAASGSIFSSNAMAWYRQAPGKQRDLVAAINSVGVTKYADSVKGRFTISRDNSKNTVYLQMNSLRPEDTAVYYCTSDPRRGWDTRYWGQGTLVTVSS")
7.80
>>> obs_value("CX3CR1BIIPMP66B02 (VHH, alexa647 label where used as labeled competitor (Table 23), also called CX3CR1BII66B02; C100CX3CR1BII66B02; not shown: C-terminal c-myc and His6 tags) VHH: EVQLVESGGGSVQAGESLRLSCAASGSIFSSNAMAWYRQAPGKRRDLVAAINSVGVTKYADSVKGRFTISRDNAKNTVYLQMNSLKPEDTAVYYCTSDPRRGWDTRYWGQGTQVTVSS")
8.59
>>> obs_value("C100CX3CR1BII043 (VHH, 66B02 with A14P, A74S, K83R, Q108L; not shown: myc/His tag) VHH: EVQLVESGGGSVQPGESLRLSCAASGSIFSSNAMAWYRQAPGKRRDLVAAINSVGVTKYADSVKGRFTISRDNSKNTVYLQMNSLRPEDTAVYYCTSDPRRGWDTRYWGQGTLVTVSS")
8.66

--- query ---
// query pIC50 value for entry C100CX3CR1BII048 (VHH, 66B02 with A14P, E16G, A74S, K83R, Q108L; not shown: myc/His tag) VHH: EVQLVESGGGSVQPGGSLRLSCAASGSIFSSNAMAWYRQAPGKRRDLVAAINSVGVTKYADSVKGRFTISRDNSKNTVYLQMNSLRPEDTAVYYCTSDPRRGWDTRYWGQGTLVTVSS
8.72
